Reported DC50 is given for each of the following compounds.
- ASSAY SYSTEM: p300 (Homo sapiens, UniProt Q09472)
- Construct: host or cells: A549 P300 HiBit cells
- Sequence (Q09472 whole entry): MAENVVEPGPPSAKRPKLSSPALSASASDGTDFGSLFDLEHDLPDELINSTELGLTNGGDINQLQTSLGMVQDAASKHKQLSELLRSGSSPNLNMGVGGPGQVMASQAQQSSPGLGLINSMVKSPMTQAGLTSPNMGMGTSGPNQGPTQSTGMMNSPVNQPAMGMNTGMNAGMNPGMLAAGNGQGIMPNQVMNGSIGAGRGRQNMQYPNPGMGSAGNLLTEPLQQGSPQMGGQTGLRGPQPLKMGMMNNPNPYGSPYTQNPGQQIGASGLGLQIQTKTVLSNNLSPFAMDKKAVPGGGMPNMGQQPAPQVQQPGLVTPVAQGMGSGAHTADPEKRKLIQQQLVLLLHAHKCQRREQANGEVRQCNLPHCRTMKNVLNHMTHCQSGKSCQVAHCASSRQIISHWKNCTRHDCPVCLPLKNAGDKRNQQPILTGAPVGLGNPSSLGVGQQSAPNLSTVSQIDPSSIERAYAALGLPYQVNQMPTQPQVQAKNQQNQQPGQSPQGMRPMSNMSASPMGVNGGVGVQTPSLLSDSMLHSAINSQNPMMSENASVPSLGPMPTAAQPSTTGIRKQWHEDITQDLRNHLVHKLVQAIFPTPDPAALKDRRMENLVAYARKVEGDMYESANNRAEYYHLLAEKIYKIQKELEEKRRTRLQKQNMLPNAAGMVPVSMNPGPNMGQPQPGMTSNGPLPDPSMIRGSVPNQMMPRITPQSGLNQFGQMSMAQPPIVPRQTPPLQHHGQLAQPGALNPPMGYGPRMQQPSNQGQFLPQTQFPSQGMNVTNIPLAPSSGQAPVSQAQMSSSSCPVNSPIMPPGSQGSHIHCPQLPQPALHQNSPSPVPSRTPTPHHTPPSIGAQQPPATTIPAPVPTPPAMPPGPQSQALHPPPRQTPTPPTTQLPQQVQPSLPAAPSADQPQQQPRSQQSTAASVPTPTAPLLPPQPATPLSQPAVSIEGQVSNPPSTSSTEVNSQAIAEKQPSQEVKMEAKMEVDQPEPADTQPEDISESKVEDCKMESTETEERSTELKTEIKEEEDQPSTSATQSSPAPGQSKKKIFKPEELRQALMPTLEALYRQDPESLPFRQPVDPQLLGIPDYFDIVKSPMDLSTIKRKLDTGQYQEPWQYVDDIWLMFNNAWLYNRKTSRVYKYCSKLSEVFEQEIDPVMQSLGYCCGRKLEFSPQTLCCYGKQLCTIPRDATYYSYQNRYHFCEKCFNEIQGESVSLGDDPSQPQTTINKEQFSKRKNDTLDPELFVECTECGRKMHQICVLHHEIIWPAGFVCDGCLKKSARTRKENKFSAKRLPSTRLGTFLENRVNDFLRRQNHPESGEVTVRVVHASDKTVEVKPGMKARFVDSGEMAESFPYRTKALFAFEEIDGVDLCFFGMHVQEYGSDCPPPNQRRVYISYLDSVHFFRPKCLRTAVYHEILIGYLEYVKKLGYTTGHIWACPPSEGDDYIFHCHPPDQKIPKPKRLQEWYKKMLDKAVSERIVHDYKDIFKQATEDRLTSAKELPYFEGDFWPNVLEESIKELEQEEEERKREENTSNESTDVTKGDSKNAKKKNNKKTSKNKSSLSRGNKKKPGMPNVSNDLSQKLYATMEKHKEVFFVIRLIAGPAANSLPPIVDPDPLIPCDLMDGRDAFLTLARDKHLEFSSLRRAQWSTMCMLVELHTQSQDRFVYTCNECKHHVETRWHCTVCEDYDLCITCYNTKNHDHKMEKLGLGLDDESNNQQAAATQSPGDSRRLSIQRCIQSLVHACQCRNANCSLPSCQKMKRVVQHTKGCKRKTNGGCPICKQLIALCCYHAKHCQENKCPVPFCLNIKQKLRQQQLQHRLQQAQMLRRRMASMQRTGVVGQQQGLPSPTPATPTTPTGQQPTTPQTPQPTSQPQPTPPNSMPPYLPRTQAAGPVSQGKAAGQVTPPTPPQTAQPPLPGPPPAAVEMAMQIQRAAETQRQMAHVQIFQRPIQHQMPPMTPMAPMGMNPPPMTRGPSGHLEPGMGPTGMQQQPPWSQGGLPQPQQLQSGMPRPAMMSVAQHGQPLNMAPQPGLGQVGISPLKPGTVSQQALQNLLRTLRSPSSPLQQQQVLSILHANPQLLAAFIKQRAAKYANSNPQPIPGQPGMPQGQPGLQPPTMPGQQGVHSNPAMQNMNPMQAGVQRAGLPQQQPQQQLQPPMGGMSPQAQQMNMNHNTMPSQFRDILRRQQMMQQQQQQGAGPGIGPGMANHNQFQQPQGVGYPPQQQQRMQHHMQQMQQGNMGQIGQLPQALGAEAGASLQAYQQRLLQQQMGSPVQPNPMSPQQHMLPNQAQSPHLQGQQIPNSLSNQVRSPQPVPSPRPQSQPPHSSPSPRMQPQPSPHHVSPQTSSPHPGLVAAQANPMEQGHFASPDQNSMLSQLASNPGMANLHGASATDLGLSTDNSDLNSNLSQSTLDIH
- METHOD DESCRIPTION: P300 degradation, HiBit technology in A549 P300 HiBit cells (2 h)
- Format: cell-based
- CONDITIONS: A549 P300 HiBit cells, 2 hrs post treatment

Q: Any idea what its DC50 is? The compound is Cc1cc2c(N3CCCc4nc(-c5ccc(C(=O)NCC#Cc6ccc7occ(C89CC(C8)C(=O)NC9=O)c7c6)nc5)ncc43)cc(C3CCOCC3)cc2n(C)c1=O
A: 1 to 9.9 nM

Q: Any idea what its DC50 is? The compound is Cc1cc2c(N3CCCc4nc(-c5ccc(C(=O)NCC#Cc6ccc7occ(C8CCC(=O)NC8=O)c7c6)nc5)ncc43)nc(N3CCOCC3)nc2n(C)c1=O (centres unmarked)
A: 1 to 9.9 nM

Q: Any idea what its DC50 is? The compound is CC(C)c1cc(-c2cccc3cc(-c4ccc(C(=O)NCC#Cc5ccc6c(C#N)nn(C7CCC(=O)NC7=O)c6c5)nc4)ncc23)cc2c1n(C)c(=O)n2C (centres unmarked)
A: 10 to 99 nM

Continuing:
Q: Any idea what its DC50 is? The compound is Cc1cc2c(N3CCCc4nc(-c5ccc(C(=O)NCC#Cc6ccc7occ(C8CCC(=O)NC8=O)c7c6)nc5)ncc43)nc(N(C)C)cc2n(C)c1=O (centres unmarked)
A: 1 to 9.9 nM

Q: Any idea what its DC50 is? The compound is Cc1cc(-c2ncc(N(C)c3cc(C4CCOCC4)c4c(c3)n(C)c(=O)n4C)cn2)cnc1C(=O)NCC#Cc1ccc2occ([C@H]3CCC(=O)NC3=O)c2c1
A: 1 to 9.9 nM

Q: Any idea what its DC50 is? The compound is CC(C)c1cc(-c2cccc3cc(-c4ccc(C(=O)NCC#Cc5oc6c(C7CCC(=O)NC7=O)cccc6c5F)nc4)ncc23)cc2c1n(C)c(=O)n2C (centres unmarked)
A: 10 to 99 nM

====

- ASSAY SYSTEM: CBP (Homo sapiens, UniProt Q92793)
- Construct: host or cells: A549 CBP HiBit cells
- Sequence (Q92793 whole entry): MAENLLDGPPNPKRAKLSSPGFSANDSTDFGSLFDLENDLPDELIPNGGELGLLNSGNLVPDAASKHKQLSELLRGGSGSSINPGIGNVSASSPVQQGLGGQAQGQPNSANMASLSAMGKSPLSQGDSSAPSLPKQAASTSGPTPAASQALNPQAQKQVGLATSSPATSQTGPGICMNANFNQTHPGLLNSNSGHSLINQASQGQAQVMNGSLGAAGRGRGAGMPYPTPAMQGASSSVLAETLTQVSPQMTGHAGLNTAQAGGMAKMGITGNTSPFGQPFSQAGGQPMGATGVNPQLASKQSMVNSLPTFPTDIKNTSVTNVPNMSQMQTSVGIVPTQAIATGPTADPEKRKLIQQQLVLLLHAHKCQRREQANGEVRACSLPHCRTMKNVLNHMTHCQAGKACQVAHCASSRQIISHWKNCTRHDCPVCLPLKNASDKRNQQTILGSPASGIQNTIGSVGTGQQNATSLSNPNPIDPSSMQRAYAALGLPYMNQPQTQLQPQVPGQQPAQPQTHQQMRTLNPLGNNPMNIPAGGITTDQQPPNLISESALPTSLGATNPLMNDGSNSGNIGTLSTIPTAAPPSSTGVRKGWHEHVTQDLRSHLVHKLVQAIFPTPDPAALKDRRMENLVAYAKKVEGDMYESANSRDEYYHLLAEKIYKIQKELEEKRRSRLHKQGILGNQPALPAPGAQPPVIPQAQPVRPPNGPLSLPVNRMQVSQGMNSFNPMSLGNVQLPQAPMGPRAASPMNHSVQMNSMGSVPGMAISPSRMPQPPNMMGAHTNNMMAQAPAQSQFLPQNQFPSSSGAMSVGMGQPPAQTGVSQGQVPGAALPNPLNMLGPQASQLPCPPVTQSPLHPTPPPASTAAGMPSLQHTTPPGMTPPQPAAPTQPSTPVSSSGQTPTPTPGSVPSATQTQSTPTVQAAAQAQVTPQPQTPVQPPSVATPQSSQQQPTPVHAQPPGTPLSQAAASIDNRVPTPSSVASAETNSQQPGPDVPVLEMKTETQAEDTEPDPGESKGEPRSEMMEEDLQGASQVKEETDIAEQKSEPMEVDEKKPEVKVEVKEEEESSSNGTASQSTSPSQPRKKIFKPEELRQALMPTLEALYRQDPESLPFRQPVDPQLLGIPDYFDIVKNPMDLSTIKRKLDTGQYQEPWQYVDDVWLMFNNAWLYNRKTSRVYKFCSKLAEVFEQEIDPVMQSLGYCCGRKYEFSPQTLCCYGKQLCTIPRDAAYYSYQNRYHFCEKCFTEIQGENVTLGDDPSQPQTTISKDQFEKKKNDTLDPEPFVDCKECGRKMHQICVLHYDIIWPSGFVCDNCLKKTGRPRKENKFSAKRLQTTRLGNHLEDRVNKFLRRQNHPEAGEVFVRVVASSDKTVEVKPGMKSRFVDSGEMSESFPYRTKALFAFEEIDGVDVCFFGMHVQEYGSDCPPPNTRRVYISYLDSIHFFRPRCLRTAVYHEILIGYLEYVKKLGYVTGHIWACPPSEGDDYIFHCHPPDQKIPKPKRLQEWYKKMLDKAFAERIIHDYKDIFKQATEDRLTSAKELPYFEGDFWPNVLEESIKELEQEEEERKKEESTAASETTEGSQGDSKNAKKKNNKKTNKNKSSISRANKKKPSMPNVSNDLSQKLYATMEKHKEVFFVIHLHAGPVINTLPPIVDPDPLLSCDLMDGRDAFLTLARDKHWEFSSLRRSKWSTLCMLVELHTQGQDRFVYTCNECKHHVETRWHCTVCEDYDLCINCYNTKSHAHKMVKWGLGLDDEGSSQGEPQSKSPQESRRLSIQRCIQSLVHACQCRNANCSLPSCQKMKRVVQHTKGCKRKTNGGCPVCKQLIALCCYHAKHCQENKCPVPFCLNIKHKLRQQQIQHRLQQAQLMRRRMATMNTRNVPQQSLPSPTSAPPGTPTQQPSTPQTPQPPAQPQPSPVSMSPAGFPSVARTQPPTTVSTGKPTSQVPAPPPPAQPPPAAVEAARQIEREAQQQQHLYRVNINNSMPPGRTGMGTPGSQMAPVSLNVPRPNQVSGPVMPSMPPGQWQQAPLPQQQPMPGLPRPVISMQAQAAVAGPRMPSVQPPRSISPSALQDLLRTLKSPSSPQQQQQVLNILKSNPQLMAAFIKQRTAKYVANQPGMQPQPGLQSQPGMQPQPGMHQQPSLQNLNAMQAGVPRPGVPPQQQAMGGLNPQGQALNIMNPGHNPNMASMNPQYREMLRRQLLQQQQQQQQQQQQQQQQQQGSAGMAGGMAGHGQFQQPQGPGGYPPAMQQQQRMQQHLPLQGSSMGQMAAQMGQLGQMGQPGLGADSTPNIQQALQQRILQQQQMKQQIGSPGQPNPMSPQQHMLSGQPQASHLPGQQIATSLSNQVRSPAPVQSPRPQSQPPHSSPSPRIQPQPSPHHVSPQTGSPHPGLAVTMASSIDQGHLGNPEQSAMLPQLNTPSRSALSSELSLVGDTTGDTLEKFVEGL
- METHOD DESCRIPTION: CBP degradation, HiBit technology in A549 CBP HiBit cells (24 h)
- Type: cell-based
- CONDITIONS: 24 hrs post treatment
- Description: p300 and CBP degradation potency and Dmax were determined using in cell western (ICW) assay technology in H1299 cells or HiBit technology in A549 HiBit cells. A549 P300 HiBit and A549 CBP HiBit cells were plated in separate 384-well, TC treated, white-opaque, flat-bottomed microplate. […] After incubation, luminescent signal of each plate was measured using the Envision instrument (Perkin Elmer).
MEASURE NAME: DC50

Q: Any idea what its DC50 is? The molecule is Cc1cc(-c2cc3cccc(-c4cc5c(c(N6CC7CCC(C6)O7)n4)n(C)c(=O)n5C)c3cn2)cnc1C(=O)NCC#Cc1ccc2occ(C3CCC(=O)NC3=O)c2c1 (stereo not drawn)
A: > 1000 nM

Q: Any idea what its DC50 is? The molecule is Cc1cc(-c2ncc3c(n2)OCCN3c2ccc3c(c2)n(C)c(=O)n3C)cnc1C(=O)NCC#Cc1ccc2occ(C3CCC(=O)NC3=O)c2c1 (stereo not drawn) [Example A93]
A: > 1000 nM

Q: Any idea what its DC50 is? The molecule is Cc1cc(-c2cc3cccc(-c4ccc5c(c4)n(C)c(=O)n5C)c3cn2)cnc1C(=O)NCC#Cc1ccc2occ([C@@H]3CCC(=O)NC3=O)c2c1
A: > 1000 nM

Q: Any idea what its DC50 is? The molecule is Cn1c(=O)n(C)c2c(N3CC4CCC(C3)O4)nc(-c3cccc4cc(-c5ccc(C(=O)NCC#Cc6ccc7occ(C8CCC(=O)NC8=O)c7c6)nc5)ncc34)cc21 (stereo not drawn)
A: > 1000 nM

Q: Any idea what its DC50 is? The molecule is Cn1c(=O)n(C)c2cc(-c3cccc4cc(-c5ccc(C(=O)NCC#Cc6ccc7occ(C8CCC(=O)NC8=O)c7c6)nc5)ncc34)ccc21 (stereo not drawn)
A: > 1000 nM

Now look at this entry.
Q: Any idea what its DC50 is? The molecule is Cc1cc(-c2cc3cccc(-c4cnc5c(c4)n(C)c(=O)n5C)c3cn2)cnc1C(=O)NCC#Cc1cc2c(C3CCC(=O)NC3=O)cccc2o1 (stereo not drawn)
A: > 1000 nM

These entries and their values trace back to patent US20250114345A1.
